molecular target: Serine/threonine-protein kinase Sgk3 (Homo sapiens) (UniProt Q96BR1); conditions: at 0.1 µM;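 also: reported percentages are averaged inhibition values against SGK3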
Sequence (Q96BR1 whole entry): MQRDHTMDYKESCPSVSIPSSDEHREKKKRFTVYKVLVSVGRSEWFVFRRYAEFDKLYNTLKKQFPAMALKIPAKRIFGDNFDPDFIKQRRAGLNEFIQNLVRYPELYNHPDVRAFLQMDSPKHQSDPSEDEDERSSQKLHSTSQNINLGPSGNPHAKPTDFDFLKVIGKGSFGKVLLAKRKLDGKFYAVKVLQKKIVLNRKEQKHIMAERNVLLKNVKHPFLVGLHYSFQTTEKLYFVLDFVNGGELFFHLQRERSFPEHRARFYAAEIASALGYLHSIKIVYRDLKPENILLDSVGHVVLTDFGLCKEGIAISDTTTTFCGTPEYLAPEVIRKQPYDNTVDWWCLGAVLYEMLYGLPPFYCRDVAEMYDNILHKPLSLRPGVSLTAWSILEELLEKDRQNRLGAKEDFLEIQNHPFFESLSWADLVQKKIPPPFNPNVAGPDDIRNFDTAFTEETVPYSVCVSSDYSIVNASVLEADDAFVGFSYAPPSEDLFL
Readout: inhibition (%)
Give the value, in units of %, as a plain number.

Indicate its recorded inhibition; the molecule in question is CS(=O)(=O)CCNCc1cc(-c2cc3c(Nc4ccc(OCc5cccc(F)c5)c(Cl)c4)ncnc3s2)cs1
3.92

Indicate its recorded inhibition; the molecule in question is O=C1Nc2ccc(I)cc2C1=Cc1cc(Br)c(O)c(Br)c1
3.3

Indicate its recorded inhibition; the molecule in question is C[C@@H](Oc1cc(-n2cnc3ccc(OC4CCN(C)CC4)cc32)sc1C(N)=O)c1ccccc1Cl
3.29

Indicate its recorded inhibition; the molecule in question is CCN(CC)Cc1ccc(Nc2nccc(-c3cnn4ncccc34)n2)cc1
3.92

Indicate its recorded inhibition; the molecule in question is O=C1Nc2ccccc2/C1=C/Nc1ccc(-n2cncn2)cc1
4.57
